tested on: Bowes; assay: drug sensitivity score (DSS) (DSS (unitless, 0-50 scale)); higher = more sensitive (stronger viability inhibition); extreme values may be limits of the assay; settings: 72 h; culture: 2D
result-type: drug sensitivity score
// return a plain number; no unit text

sample-smiles: CC[C@@H]1C(=O)N(C)c2cnc(Nc3ccc(C(=O)NC4CCN(C)CC4)cc3OC)nc2N1C1CCCC1
drug sensitivity score: 19.7
//
sample-smiles: Cc1cn(-c2cc(NC(=O)c3ccc(C)c(Nc4nccc(-c5cnccn5)n4)c3)cc(C(F)(F)F)c2)cn1
drug sensitivity score: 0
//
sample-smiles: Cc1c2oc3c(C)ccc(C(=O)N[C@@H]4C(=O)N[C@H](C(C)C)C(=O)N5CCC[C@H]5C(=O)N(C)CC(=O)N(C)[C@@H](C(C)C)C(=O)O[C@@H]4C)c3nc-2c(C(=O)N[C@@H]2C(=O)N[C@H](C(C)C)C(=O)N3CCC[C@H]3C(=O)N(C)CC(=O)N(C)[C@@H](C(C)C)C(=O)O[C@@H]2C)c(N)c1=O
drug sensitivity score: 24.4
//
sample-smiles: O[C@H]1CC[C@H](Nc2ncc3nc(Nc4c(F)cc(F)cc4F)n([C@H]4CCOC4)c3n2)CC1
drug sensitivity score: 0
//
sample-smiles: Cc1cc2c(C(=O)NC[C@H](C)c3ccccc3)c(O)c(O)cc2c(O)c1-c1c(C)cc2c(C(=O)NC[C@H](C)c3ccccc3)c(O)c(O)cc2c1O
drug sensitivity score: 27.6

State its drug sensitivity score on Bowes: `c1cn2cc(-c3ccc4cn[nH]c4c3)nc(Nc3ccc(N4CCOCC4)cc3)c2n1`
0

Request: drug sensitivity score, test system Bowes, entry `COc1cc2ncnc(Oc3cccc(NC(=O)Nc4cc(C(C)(C)C(F)(F)F)on4)c3)c2cc1OC`
0

Report drug sensitivity score for `CC(C)(C#N)c1cc(Cn2cncn2)cc(C(C)(C)C#N)c1` tested on Bowes.
0

The measured values listed here are drawn from the supplement of paper PMC8633005.
